- system: Bovine serum albumin (BSA) (Bos taurus)
- Construct: add 4 g of albumin (available from Sigma-Aldrich) from bovine serum (BSA) to 2000 mL of buffer solution; purchased Sigma-Aldrich A7906; host or cells: bovine serum (natural source)
- Sequence (P02769 25-607): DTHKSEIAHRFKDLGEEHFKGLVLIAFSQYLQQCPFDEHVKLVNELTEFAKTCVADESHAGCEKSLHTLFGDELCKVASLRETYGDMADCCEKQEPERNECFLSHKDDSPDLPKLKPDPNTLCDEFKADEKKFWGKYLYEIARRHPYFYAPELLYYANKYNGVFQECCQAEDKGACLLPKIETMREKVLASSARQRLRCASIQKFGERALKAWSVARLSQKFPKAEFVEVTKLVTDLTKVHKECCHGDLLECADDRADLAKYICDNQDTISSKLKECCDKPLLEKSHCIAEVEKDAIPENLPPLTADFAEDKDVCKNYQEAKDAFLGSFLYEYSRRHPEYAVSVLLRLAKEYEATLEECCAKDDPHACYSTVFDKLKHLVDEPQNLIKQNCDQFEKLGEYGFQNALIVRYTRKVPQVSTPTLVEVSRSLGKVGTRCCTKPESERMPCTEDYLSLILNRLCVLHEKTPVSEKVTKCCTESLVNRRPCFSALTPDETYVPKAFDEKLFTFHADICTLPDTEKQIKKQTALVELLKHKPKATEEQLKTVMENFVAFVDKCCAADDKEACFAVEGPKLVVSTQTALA
- experiment: In vitro active-protein interaction: BSA precipitation by the Bradford method
- Format: biochemical
- measurement setup: screening test, 10% active solution, buffer pH 4.9
- Text: Method 2: In Vitro Study to Evaluate Active-Protein Interaction Bovine serum albumin (BSA) was used as the reference protein to generate the calibration curve. […] The BSA granular, the BSA solution standard and Bradford reagent were all obtained from Sigma-Aldrich (Catalog Number: A7906, PO834, B6916). […] 5. […] Measure and record the absorbance at 595 nm. […]
readout kind: Precipitation (BSA) (%)
Numbers only, in %.

Worked cases, Precipitation (BSA) given:
• O.O=S(=O)([O-])[O-].[Mg+2] [Magnesium sulfate 1•H2O] = 11
• O=S(=O)([O-])[O-].[Mg+2] [Magnesium sulfate Andros] = 8
• O=S(=O)([O-])c1ccc(O)cc1.O=S(=O)([O-])c1ccc(O)cc1.[Zn+2] [Zinc Phenolsulfonate, zinc phenolsulfonate] = 18

Would you mind giving Precipitation (BSA) for every compound in the list below?
1. O.O.O.O.O.O=S(=O)([O-])[O-].[Mg+2] [Magnesium sulfate 5•H2O]
2. CC(=O)[O-].CC(=O)[O-].[Ca+2] [Calcium acetate]
3. CC(=O)[O-].[Na+] [Sodium acetate]
4. [Mg+2].[O-][Cl+2]([O-])[O-].[O-][Cl+2]([O-])[O-] [Magnesium chlorate]

Reply |
10
5
5
4

Ask | Indicate the recorded Precipitation (BSA) value for this compound: O.O.O.O.O.O.O.O=S(=O)([O-])[O-].[Mg+2] [Magnesium sulfate 7•H2O]
Reply | 12
